Measurement target: Full-length wild type HIV-1 integrase (SF1) (Human immunodeficiency virus type 1 group M subtype B, UniProt P04585)
Construct: made in house; host or cells: E. coli BL21 (DE3)
Experimental details: Integrase strand-transfer scintillation proximity assay
Format: biochemical
Recorded conditions: integrase strand-transfer SPA; read-out: IC50
Property name: pIC50
Quick note: pIC50 values are minus log10 of concentrations in mol/L.

Data request: Given CONC(=O)c1cc2c(C(=O)NC(C)C)cn(Cc3ccc(F)cc3)c2cn1 , state its recorded pIC50.
Data returned: 6.60

Data request: Next: CONC(=O)c1cc2c(C(=O)NC(CC(=O)NC3CC3)C3CC3)cn(Cc3ccc(F)cc3)c2cn1 (centres unmarked)
Data returned: 6.52

Data request: O=C(NO)c1cc2c(C(=O)NCCCN3CCCC3=O)cn(Cc3ccc(F)cc3)c2cn1 , same question.
Data returned: 7.15

Data request: O=C1CN(S(=O)(=O)c2cn(Cc3ccc(F)cc3F)c3cnc(C(=O)NO)cc23)CCN1 ?
Data returned: 6.58

Data request: Do the same for Cc1c(CNC(=O)c2cn(Cc3ccc(F)cc3)c3cnc(C(=O)NO)cc23)cnn1C please
Data returned: 7.34

Data request: Queued: CN(O)C(=O)c1cc2c(C(=O)NCCCN3CCCC3=O)cn(Cc3ccc(F)cc3)c2cn1
Data returned: 6.68

Continuing:
Data request: Look up pIC50 for this molecule: CN(C)S(=O)(=O)c1cn(Cc2ccc(F)cc2)c2cnc(C(=O)NO)cc12
Data returned: 6.87

Data request: Can you check CN(O)C(=O)c1cc2c(C(=O)NC[C@@H]3CCCO3)cn(Cc3ccc(F)cc3)c2cn1 next?
Data returned: 6.66

Data request: Okay, and O=C(NO)c1cc2c(C(=O)NCCN3CCOCC3)cn(Cc3ccc(F)cc3)c2cn1 ?
Data returned: 7.12
